Cited source: patent US10479780B2

Listed next: entries and their corresponding pIC50.
target: human Yes1 enzyme (Homo sapiens); construct: made in house; test: Yes1 enzyme inhibitory activity (time-resolved fluorometry, biotinylated peptide phosphorylation); format: biochemical; settings: biotinylated peptide phosphorylation, read-out: YES_IC50
Sequence (P07947 whole entry): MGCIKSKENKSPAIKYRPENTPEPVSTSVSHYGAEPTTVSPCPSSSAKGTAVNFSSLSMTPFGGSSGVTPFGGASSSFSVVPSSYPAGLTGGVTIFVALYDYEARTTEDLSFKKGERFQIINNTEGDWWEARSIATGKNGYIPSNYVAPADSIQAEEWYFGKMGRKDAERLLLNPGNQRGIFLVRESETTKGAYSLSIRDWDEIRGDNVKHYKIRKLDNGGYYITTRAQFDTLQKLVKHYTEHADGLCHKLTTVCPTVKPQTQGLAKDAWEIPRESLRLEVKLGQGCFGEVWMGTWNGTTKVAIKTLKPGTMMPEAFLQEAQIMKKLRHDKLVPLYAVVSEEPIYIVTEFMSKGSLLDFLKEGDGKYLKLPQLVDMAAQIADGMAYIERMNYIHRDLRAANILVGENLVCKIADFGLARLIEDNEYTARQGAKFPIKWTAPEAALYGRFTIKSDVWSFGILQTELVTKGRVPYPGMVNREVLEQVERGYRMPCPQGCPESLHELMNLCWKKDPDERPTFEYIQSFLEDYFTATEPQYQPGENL
For clarity, pIC50 is expressed as the negative log10 of concentration in mol/L.

compound: Cc1cc(-n2ncc(C(=O)c3cc4cc(C)c(N5C(=O)NC6(COC6)C5=O)cc4[nH]3)c2N)ccc1Oc1ccccc1F
experimental.target: human Yes1 enzyme (Homo sapiens)
reported.metric: pIC50
endpoint.result: 8.09
//
compound: Cc1cc2cc(C(=O)c3cnn(-c4cnc(Oc5c(F)cccc5F)cc4C)c3N)[nH]c2cc1N1CCCS1(=O)=O
experimental.target: human Yes1 enzyme (Homo sapiens)
reported.metric: pIC50
endpoint.result: 8.82
//
compound: Cc1cc(Oc2ccccc2F)ccc1-n1ncc(C(=O)c2cc3cc(F)c(N4C(=O)N[C@@H](Cc5ccccc5)C4=O)cc3[nH]2)c1N
experimental.target: human Yes1 enzyme (Homo sapiens)
reported.metric: pIC50
endpoint.result: 8.77
//
compound: Cc1cc2cc(C(=O)c3cnn(-c4cnc(Oc5ccccc5F)cc4C)c3N)[nH]c2cc1NS(=O)(=O)c1cccc(Cl)n1
experimental.target: human Yes1 enzyme (Homo sapiens)
reported.metric: pIC50
endpoint.result: 8.40
//
compound: Cc1cc(Oc2c(F)cccc2F)ncc1-n1ncc(C(=O)c2cc3cc(OCC(F)F)c(N4C(=O)C(C)(C)NC4=S)cc3[nH]2)c1N
experimental.target: human Yes1 enzyme (Homo sapiens)
reported.metric: pIC50
endpoint.result: 9.00

Task: Which pIC50 value is on record for Cc1cc(Oc2ccccc2F)ncc1-n1ncc(C(=O)c2cc3cc(OCC(F)F)c(N4CCC(N5CCOCC5)CC4)cc3[nH]2)c1N ?
Result: 9.04
